Every entry's value here was drawn from ChEMBL document CHEMBL5154718.

test_method_notes: in vitro
protocol_conditions: human, HepG2 cells
Description: Cytotoxicity against human HepG2 cells assessed as cell growth inhibition incubated for 72 hrs by MTT assay
Quick reference for IC50 at 72 h among some molecules

>  <smiles_structure>
Cc1ccc2nc3c(c(NCCN4CCOCC4)c2c1)CCCC3

>  <IC50 at 72 h (µM)>
9.53

$$$$
>  <smiles_structure>
Cc1ccc2nc3c(c(N4CCCCC4)c2c1)CCCC3

>  <IC50 at 72 h (µM)>
37.9

$$$$
>  <smiles_structure>
O=C(CCN1CCN(Cc2ccccc2)CC1)Nc1n[nH]c2ncccc12

>  <IC50 at 72 h (µM)>
25

$$$$
>  <smiles_structure>
Nc1nn(-c2c3c(nc4ccc([N+](=O)[O-])cc24)CCCC3)c2ncccc12

>  <IC50 at 72 h (µM)>
44.8

$$$$
>  <smiles_structure>
O=[N+]([O-])c1ccc2nc3c(c(Nc4[nH]nc5ncccc45)c2c1)CCCC3

>  <IC50 at 72 h (µM)>
31.3

$$$$
>  <smiles_structure>
COc1cc2nc3c(c(N4CCOCC4)c2cc1OC)CCCC3

>  <IC50 at 72 h (µM)>
6.3

$$$$

###

target_or_test_system: Cholinesterase (Homo sapiens, UniProt P06276)
Sequence (P06276 whole entry): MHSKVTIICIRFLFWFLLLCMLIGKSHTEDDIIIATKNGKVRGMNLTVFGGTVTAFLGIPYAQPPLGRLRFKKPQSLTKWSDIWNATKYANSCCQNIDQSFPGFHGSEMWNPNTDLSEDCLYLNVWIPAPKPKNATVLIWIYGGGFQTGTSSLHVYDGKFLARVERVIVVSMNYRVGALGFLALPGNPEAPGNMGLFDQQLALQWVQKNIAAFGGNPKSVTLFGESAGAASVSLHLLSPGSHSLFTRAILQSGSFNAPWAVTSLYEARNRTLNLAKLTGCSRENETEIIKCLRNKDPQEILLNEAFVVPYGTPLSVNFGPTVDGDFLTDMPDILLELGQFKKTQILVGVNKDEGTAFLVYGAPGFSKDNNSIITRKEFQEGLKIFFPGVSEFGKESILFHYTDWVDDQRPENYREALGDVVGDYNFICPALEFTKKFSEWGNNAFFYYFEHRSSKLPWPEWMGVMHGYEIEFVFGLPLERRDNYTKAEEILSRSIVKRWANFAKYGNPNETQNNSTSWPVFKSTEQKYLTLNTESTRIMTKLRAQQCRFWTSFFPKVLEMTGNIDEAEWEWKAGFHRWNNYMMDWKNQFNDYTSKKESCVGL
test_method_notes: Inhibition of human plasma BuChE using butyrylthiocholine as substrate preincubated for 5 mins followed by substrate addition by Ellman's method
Format: cell-free
pIC50: −log10 of the molar value.

>  <smiles_structure>
c1ccc2c(NCCN3CCOCC3)c3c(nc2c1)CCCC3

>  <pIC50>
7.80

$$$$
